System: microorganisms
Assay: Morphology, biofilm and growth disrupting peptides (Table 5)
Type: cell-based
Parameters: key: A: Peptide aggregates; B: Less hyphal formation; Clumps; Diffuse clumps and small polyps; F: Diffuse growth; H: Thin; I: Growth inhibition; Microcolony formation; Rippled; Small polyps; Thick; W: Halo formation on top, microlonies on bottom
Test context: S. epidermidis

Substance: PF-469: peptide having multiple activities (YKVNYNNIDNHFNTLRH; Peptide with targeting and/or antimicrobial activity)
Organism, effect: S. epidermidis (D)
//
Substance: PF-615: peptide having multiple activities (chain 1 FLNRFIFYIFTVKTKSALIKNLFLD; chain 2 FLNRFIFYIFTVKTKSALIKNLFLD; Peptide with targeting and/or antimicrobial activity)
Organism, effect: S. epidermidis (D)
